Recorded IC50 for the following compounds
tested on: forty-four human cancer cell lines; test: Cell proliferation assay (ATPlite, 72 hours) in the 44 cell line Oncolines panel; type: cell-based; details: cell line 786-0; read-out: cell panel IC50, 786-0
METRIC NAME: IC50 (µM)

# COMPOUND, METRIC NAME, VALUE UNIT, OBSERVED MEASUREMENT
measured = [
    ("N.N.[Cl][Pt][Cl] [cisplatin]", "IC50", "µM", 15.1),
    ("COc1cccc2c1C(=O)c1c(O)c3c(c(O)c1C2=O)C[C@@](O)(C(=O)CO)C[C@@H]3O[C@H]1C[C@H](N)[C@H](O)[C@H](C)O1", "IC50", "µM", 0.103),
]

----------
molecular target: panel of more than 300 wild-type and mutant kinases (313 kinase panel) (Homo sapiens, UniProt Q13131); experiment: Kinase profiling in a biochemical assay panel (mobility shift assays and ELISA), %-inhibition at 1 μM; selectivity entropy; conditions: kinase AMPKα1/β1/γ1; 1 μM compound
Sequence (Q13131 whole entry, change not shown): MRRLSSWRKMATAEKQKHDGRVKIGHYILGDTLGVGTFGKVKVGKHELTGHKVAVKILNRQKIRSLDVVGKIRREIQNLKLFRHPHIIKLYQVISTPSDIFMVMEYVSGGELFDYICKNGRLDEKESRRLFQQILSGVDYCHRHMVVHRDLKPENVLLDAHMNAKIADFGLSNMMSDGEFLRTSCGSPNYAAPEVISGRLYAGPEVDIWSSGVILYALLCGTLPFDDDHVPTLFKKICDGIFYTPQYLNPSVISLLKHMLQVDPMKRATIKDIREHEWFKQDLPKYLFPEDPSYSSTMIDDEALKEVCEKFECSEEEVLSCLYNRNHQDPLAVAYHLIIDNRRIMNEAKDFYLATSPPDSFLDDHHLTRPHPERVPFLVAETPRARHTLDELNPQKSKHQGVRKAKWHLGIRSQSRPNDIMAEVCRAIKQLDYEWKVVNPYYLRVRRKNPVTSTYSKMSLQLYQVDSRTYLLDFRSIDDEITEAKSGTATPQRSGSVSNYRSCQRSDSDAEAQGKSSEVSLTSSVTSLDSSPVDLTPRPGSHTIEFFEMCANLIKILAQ

# SMI, %-inhibition, AMPKα1/β1/γ1 (%)
records = [
    ("CNC(=O)c1cc(Oc2ccc(NC(=O)Nc3ccc(Cl)c(C(F)(F)F)c3)c(F)c2)ccn1", -0.723),
    ("COc1cc(Nc2c(C#N)cnc3cc(OCCCN4CCN(C)CC4)c(OC)cc23)c(Cl)cc1Cl", 9),
    ("O=S(=O)(c1cccc2cnccc12)N1CCCNCC1", -14),
    ("COc1cc2c(Nc3ccc(Br)cc3F)ncnc2cc1OCC1CCN(C)CC1", 9),
    ("CO[C@H]1C[C@@H]2CC[C@@H](C)[C@@](O)(O2)C(=O)C(=O)N2CCCC[C@H]2C(=O)O[C@H]([C@H](C)C[C@@H]2CC[C@@H](OC(=O)C(C)(CO)CO)[C@H](OC)C2)CC(=O)[C@H](C)/C=C(\\C)[C@@H](O)[C@@H](OC)C(=O)[C@H](C)C[C@H](C)/C=C/C=C/C=C/1C", -4.34),
    ("CS(=O)(=O)CCNCc1ccc(-c2ccc3ncnc(Nc4ccc(OCc5cccc(F)c5)c(Cl)c4)c3c2)o1", -5),
    ("Cc1ccc(Nc2nccc(N(C)c3ccc4c(C)n(C)nc4c3)n2)cc1S(N)(=O)=O", -0.748),
]

----------
system: forty-four human cancer cell lines; experiment: Cell proliferation assay (ATPlite, 72 hours) in the 44 cell line Oncolines panel; format: cell-based; settings: Homo sapiens, OVCAR-3, read-out: cell panel IC50, OVCAR-3
pIC50: −log10 of the molar value.
Recorded pIC50 for the following molecules

# MOLECULE, QUALIFYING SIGN, pIC50
records = [
    ("C#Cc1cccc(Nc2ncnc3cc(OCCOC)c(OCCOC)cc23)c1 [erlotinib]", "=", 5.26),
    ("CS(=O)(=O)CCNCc1ccc(-c2ccc3ncnc(Nc4ccc(OCc5cccc(F)c5)c(Cl)c4)c3c2)o1 [lapatinib]", "<", 4.50),
]

----------
Recorded %-inhibition of MSK1 for the following molecules
biological target: panel of more than 300 wild-type and mutant kinases (313 kinase panel) (Homo sapiens, UniProt O75582); experiment: Kinase profiling in a biochemical assay panel (mobility shift assays and ELISA), %-inhibition at 1 μM; selectivity entropy; settings: kinase MSK1; 1 μM
METRIC NAME: %-inhibition of MSK1 (%)

# MOLECULE, METRIC NAME, OBSERVED MEASUREMENT
records = [
    ("CNC(=O)c1cc(Oc2ccc(NC(=O)Nc3ccc(Cl)c(C(F)(F)F)c3)c(F)c2)ccn1", "%-inhibition of MSK1", 1),
    ("CO[C@H]1C[C@@H]2CC[C@@H](C)[C@@](O)(O2)C(=O)C(=O)N2CCCC[C@H]2C(=O)O[C@H]([C@H](C)C[C@@H]2CC[C@@H](OCCO)[C@H](OC)C2)CC(=O)[C@H](C)/C=C(\\C)[C@@H](O)[C@@H](OC)C(=O)[C@H](C)C[C@H](C)/C=C/C=C/C=C/1C", "%-inhibition of MSK1", -2),
    ("CC(C)(C)c1nc(-c2cccc(NS(=O)(=O)c3c(F)cccc3F)c2F)c(-c2ccnc(N)n2)s1", "%-inhibition of MSK1", 0.0759),
    ("C[C@@H](Oc1cc(-c2cnn(C3CCNCC3)c2)cnc1N)c1c(Cl)ccc(F)c1Cl", "%-inhibition of MSK1", -0.641),
    ("COc1cc2nccc(Oc3ccc(NC(=O)C4(C(=O)Nc5ccc(F)cc5)CC4)cc3)c2cc1OC [cabozantinib]", "%-inhibition of MSK1", -2),
    ("N#CC[C@H](C1CCCC1)n1cc(-c2ncnc3[nH]ccc23)cn1", "%-inhibition of MSK1", 37),
]
